I'd be grateful if you could share measured pKd for these entries.
Target: T1, PUF4 RNA-binding domain (Saccharomyces cerevisiae, UniProt P25339 537-888)
T1 sequence: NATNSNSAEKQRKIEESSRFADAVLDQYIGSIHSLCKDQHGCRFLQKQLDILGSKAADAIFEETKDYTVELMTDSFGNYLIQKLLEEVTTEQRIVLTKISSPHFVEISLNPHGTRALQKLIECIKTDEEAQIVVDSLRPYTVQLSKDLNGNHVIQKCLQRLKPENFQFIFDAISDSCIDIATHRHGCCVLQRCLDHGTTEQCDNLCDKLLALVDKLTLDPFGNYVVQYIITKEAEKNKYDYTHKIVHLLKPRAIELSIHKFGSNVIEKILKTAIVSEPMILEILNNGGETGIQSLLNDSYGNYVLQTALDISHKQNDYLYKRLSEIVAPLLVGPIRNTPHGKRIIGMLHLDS
Experiment: Mg; RNA-MaP; 20 mM Na-HEPES pH 7.4, 30 mM KOAc, 0.75 mM MgCl2, 0.1% Tween-20, 5% glycerol, 0.1 mg/mL BSA, 2 mM DTT; 25 C; 0.0125-409.6 nM protein
Conditions: tags: N-His6-TEV cleaved; C-SNAP kept, Cy3B-labelled; label: tethered on chip by stalled RNA polymerase
One number for each entry, as −log10 of the molar value.

Solved cases (4 shown):
1. UCUCUUCCUAUAUUAUUAUUUCUCUU (ssRNA) [Id_ii_S1_P5E.3_K5.2_C5.2_[T-1C]_H5.2_A5.1_F5.1_T5.2_[A12T]] = 6.29
2. Ic_S4_P4E.1_K4.1_C4.1_H4.1_A4.1_[T5C]_[A6T]_[T7A]_F4.1_[T8C]_[A9T]_T4.1 (ssRNA) RNA: UUUGACAACUGAUCGUUCUUUCUUGUACUACUUUCUUUCUCGAUCAGUUGUCUUU = 7.23
3. UCUCUUCUUAUAUAUUAGCUCUCUU (ssRNA) [Id_ii_S1_P4E.3_K4.2_C4.2_H4.2_A4.1_F4.1_T4.2_[T11C]] = 8.11
4. UCUCUUUUACACUAUUACUUCUCUU (ssRNA) [Id_ii_S1_P4E.4_K4.3_C4.2_[C-2T]_H4.3_A4.1_F4.1_T4.2_[G10C]] = 5.93

Enquiry: Give its pKd value. Item: Id_ii_S2_P4E.2_K4.1_C4.2_[T-1G]_H4.1_A4.1_F4.1_T4.2_[G10T] (ssRNA) RNA: UUUGAUUAAUAUGAUAUCGUUCUUUCUCGUGUAUAUUAUUUUCUUUCUCGAUAUCAUAUUAAUCUUU
Return: 9.71
